Tested on: S. aureus 1126387
Assay type: cell-based, Staphylococcus aureus
Conditions: 1126387, 20 h
Where a SMILES comes first, the peptide text is derived from it. [ ]: non-standard residue; d: D form. The star is where a group is joined. d(aIle) = CC[C@H](C)[C@@H](N)C(=O)O; dDab = NCC[C@@H](N)C(=O)O; Octanoyl = CCCCCCCC(=O)*; Dab = NCC[C@H](N)C(=O)O
Measured MIC accompanies every entry in the list below.

Field: example entries. Status: answers known.
Q) What is its MIC for S. aureus 1126387? Entry: CCCCCCCC(=O)N[C@@H](C(=O)N[C@H](CCN)C(=O)NCC(=O)N[C@H](CO)C(=O)N[C@H](Cc1c[nH]c2ccccc12)C(=O)N[C@@H](CO)C(=O)N[C@@H](CCN)C(=O)N[C@H](CCN)C(=O)N[C@@H](Cc1c[nH]cn1)C(=O)N[C@@H](CCC(=O)O)C(=O)N[C@H](C(=O)N[C@@H](C(=O)N[C@@H](C)C(=O)O)[C@@H](C)CC)C(C)C)C(C)C [Oct-His9] (Octanoyl-[dV][dDab]G[dS][dW]S[Dab][dDab]HEV[d(aIle)]A-OH)
A) >64 µg/mL

Q) Item CCCCCCCC(=O)N[C@@H](C(=O)N[C@H](CCN)C(=O)NCC(=O)N[C@H](CO)C(=O)N[C@H](Cc1c[nH]c2ccccc12)C(=O)N[C@@H](CO)C(=O)N[C@@H](CCN)C(=O)N[C@H](CCN)C(=O)N[C@@H](Cc1ccc(O)cc1)C(=O)N[C@@H](CCC(=O)O)C(=O)N[C@H](C(=O)N[C@@H](C(=O)N[C@@H](C)C(=O)O)[C@@H](C)CC)C(C)C)C(C)C [Oct-Tyr9] (Octanoyl-[dV][dDab]G[dS][dW]S[Dab][dDab]YEV[d(aIle)]A-OH) with S. aureus 1126387 - MIC?
A) >64 µg/mL

Query compound follows.
Q) Recall the recorded MIC for CCCCCCCC(=O)N[C@@H](C(=O)N[C@H](CCN)C(=O)NCC(=O)N[C@H](CO)C(=O)N[C@H](Cc1c[nH]c2ccccc12)C(=O)N[C@@H](CO)C(=O)N[C@@H](CCN)C(=O)N[C@H](CCN)C(=O)N[C@H](C(=O)N[C@@H](CCC(=O)O)C(=O)N[C@H](C(=O)N[C@@H](C(=O)N[C@@H](C)C(=O)O)[C@@H](C)CC)C(C)C)C(C)C)C(C)C [Oct-Val9] (Octanoyl-[dV][dDab]G[dS][dW]S[Dab][dDab]VEV[d(aIle)]A-OH) with S. aureus 1126387 and state it.
A) >64 µg/mL
